- EXPERIMENTAL TARGET: HiBit-WIZ fusion protein (Homo sapiens, UniProt O95785+Q96SW2)
- Sequence (O95785 whole entry, the tested form may be a part): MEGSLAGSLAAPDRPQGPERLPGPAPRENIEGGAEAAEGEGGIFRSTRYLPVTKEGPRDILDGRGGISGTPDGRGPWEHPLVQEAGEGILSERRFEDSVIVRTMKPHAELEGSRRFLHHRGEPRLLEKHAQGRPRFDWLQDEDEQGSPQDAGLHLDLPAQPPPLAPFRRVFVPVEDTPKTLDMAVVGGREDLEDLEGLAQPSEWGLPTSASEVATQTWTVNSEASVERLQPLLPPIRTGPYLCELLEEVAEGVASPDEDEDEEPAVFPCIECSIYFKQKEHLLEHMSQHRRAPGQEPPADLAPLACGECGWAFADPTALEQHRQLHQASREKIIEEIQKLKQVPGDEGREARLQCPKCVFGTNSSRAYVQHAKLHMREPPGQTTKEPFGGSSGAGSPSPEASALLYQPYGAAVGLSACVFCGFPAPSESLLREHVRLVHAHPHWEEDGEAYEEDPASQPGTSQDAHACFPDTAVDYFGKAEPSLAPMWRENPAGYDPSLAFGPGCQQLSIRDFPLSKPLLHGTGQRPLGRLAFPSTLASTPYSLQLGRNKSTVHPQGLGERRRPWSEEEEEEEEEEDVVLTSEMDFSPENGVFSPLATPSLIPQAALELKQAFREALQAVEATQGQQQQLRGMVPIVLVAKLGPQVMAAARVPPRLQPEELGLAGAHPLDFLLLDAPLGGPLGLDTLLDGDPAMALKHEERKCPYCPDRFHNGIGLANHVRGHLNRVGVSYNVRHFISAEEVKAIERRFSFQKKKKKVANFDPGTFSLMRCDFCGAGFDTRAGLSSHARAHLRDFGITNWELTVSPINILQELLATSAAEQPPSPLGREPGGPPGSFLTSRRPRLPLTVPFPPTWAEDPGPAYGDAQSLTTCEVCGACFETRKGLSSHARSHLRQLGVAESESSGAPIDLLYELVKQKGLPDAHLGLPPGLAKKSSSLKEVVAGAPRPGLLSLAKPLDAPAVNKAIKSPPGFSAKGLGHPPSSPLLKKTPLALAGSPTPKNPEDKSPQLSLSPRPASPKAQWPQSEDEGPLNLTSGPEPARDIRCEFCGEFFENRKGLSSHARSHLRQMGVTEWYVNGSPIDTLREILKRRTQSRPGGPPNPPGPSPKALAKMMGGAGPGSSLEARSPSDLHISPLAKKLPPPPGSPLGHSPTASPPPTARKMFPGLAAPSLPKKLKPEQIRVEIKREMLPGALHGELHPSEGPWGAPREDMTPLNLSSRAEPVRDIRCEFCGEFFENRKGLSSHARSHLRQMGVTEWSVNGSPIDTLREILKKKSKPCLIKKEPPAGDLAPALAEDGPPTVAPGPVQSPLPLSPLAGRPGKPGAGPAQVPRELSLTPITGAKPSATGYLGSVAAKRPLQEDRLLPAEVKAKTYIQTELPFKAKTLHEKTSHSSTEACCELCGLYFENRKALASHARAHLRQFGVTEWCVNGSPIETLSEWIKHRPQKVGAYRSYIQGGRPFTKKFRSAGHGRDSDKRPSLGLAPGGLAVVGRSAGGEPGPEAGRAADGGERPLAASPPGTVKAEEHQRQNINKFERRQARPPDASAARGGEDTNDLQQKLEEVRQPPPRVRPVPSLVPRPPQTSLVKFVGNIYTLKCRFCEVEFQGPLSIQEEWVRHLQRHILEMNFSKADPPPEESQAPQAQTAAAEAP
- Sequence (Q96SW2 whole entry, the tested form may be a part): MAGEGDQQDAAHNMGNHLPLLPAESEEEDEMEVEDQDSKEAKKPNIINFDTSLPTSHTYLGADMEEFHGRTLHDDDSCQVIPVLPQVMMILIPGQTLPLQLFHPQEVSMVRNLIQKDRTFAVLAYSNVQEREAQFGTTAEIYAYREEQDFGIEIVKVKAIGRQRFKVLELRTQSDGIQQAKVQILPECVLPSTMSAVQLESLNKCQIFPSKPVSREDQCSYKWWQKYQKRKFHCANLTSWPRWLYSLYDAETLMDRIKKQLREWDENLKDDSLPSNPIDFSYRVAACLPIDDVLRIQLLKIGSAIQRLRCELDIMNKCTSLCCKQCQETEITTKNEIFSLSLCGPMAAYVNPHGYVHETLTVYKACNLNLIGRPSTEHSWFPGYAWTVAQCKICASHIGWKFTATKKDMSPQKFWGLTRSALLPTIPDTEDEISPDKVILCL
- Sequence (Q16531 whole entry partner, the tested form may be a part): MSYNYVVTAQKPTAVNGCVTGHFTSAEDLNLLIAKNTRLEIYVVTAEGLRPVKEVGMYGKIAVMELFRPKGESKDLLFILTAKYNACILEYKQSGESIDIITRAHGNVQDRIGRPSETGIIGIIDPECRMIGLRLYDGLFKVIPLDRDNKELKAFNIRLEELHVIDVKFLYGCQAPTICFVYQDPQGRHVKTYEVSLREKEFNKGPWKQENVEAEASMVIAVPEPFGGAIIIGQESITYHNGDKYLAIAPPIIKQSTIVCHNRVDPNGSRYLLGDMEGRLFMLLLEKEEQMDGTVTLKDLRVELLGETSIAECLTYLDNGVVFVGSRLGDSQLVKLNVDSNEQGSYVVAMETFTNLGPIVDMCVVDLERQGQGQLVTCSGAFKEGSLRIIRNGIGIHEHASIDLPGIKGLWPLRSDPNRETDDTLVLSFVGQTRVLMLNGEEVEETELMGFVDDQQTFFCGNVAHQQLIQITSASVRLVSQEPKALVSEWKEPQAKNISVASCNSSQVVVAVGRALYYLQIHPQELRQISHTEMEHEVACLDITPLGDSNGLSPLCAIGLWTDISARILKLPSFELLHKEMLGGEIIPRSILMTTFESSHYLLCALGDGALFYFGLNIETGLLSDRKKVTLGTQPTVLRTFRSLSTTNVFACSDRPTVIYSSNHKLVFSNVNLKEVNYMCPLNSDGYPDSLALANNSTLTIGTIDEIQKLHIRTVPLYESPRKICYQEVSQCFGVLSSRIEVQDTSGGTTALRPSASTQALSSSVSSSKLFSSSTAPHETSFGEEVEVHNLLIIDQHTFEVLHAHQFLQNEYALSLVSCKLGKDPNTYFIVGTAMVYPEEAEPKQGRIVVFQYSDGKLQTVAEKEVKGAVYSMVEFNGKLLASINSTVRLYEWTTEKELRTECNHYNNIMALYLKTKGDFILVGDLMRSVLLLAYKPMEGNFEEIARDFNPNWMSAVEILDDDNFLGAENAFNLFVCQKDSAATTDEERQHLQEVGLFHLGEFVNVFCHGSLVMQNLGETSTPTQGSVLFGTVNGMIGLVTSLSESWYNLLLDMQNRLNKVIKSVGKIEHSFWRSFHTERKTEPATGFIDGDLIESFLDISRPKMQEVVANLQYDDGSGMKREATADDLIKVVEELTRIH
- MEASUREMENT NOTES: Quantification of WIZ protein levels in HiBit tag fusion protein assay (WIZ HiBit assay in 293T cells)
- Type: cell-based
- SETTINGS: 100 minus Amax, at 25 uM; 293T cells
Each entry gets no if its % degradation of WIZ (100-Amax) stays under 70%, and yes if its % degradation of WIZ (100-Amax) is 70% or above.

Please review the following examples before continuing.
INSERT INTO assay_data (compound, experimental_target, answer_label) VALUES
  ('CCN1C2CCC(C2)C1COc1ccc2c(c1)CN(C1CCC(=O)NC1=O)C2=O (single isomer, unassigned) [I-255 (Isomer 4)]', 'HiBit-WIZ fusion protein (Homo sapiens, UniProt O95785+Q96SW2)', 'yes'),
  ('CCC(Oc1ccc2c(c1)CN(C1CCC(=O)NC1=O)C2=O)[C@@H]1CCCN1 (single isomer, unassigned) [Compound I-45]', 'HiBit-WIZ fusion protein (Homo sapiens, UniProt O95785+Q96SW2)', 'no'),
  ('CCN1C2CCC(C2)C1COc1ccc2c(c1)CN(C1CCC(=O)NC1=O)C2=O (single isomer, unassigned) [I-255 (Isomer 3)]', 'HiBit-WIZ fusion protein (Homo sapiens, UniProt O95785+Q96SW2)', 'no'),
  ('CCN1CCCC(C)(C)C1COc1ccc2c(c1)CN(C1CCC(=O)NC1=O)C2=O (single isomer, unassigned)', 'HiBit-WIZ fusion protein (Homo sapiens, UniProt O95785+Q96SW2)', 'no'),
  ('CCN1CCC(F)(F)CC1COc1ccc2c(c1)CN(C1CCC(=O)NC1=O)C2=O (single isomer, unassigned) [I-252 (Isomer 2)]', 'HiBit-WIZ fusion protein (Homo sapiens, UniProt O95785+Q96SW2)', 'yes');

# bool: % degradation of WIZ (100-Amax) of CCN1C2CCC(C2)C1COc1ccc2c(c1)CN(C1CCC(=O)NC1=O)C2=O (single isomer, unassigned) [I-255 (Isomer 1)] >= 70%
yes

###

- EXPERIMENTAL TARGET: HiBit-WIZ fusion protein (Homo sapiens, UniProt O95785+Q96SW2)
- MEASUREMENT NOTES: Quantification of WIZ protein levels in HiBit tag fusion protein assay (WIZ HiBit assay in 293T cells)
- Type: cell-based
- Set-up: dose or concentration left out as unconfirmed
- SETTINGS: HEK-293T, 100 minus Amax; 293T cells; read-out: % degradation of WIZ (100-Amax)
OUTCOME MEASURE: Dmax (%)
Field: numeric (%). Do not append units.

Guide cases for Dmax, answers given:
INSERT INTO results (molecule, outcome_measure, quantity_unit, recorded_value) VALUES
  ('O=C1CCC(N2Cc3cc(OC[C@H]4CCCCN4CC4CCN(C(=O)OCc5ccccc5)CC4)ccc3C2=O)C(=O)N1 (some centres unmarked) [Compound I-50cl]', 'Dmax', '%', 77.7),
  ('CN(C)Cc1ncc(-c2ccc(Oc3cc(Cl)cnc3CN3CCCC[C@@H]3COc3ccc4c(c3)CN(C3CCC(=O)NC3=O)C4=O)cc2)n1C (some centres unmarked) [Compound I-50di]', 'Dmax', '%', 79),
  ('CCOC(=O)c1cccc2[nH]nc(CN3CCCC[C@H]3COc3ccc4c(c3)CN(C3CCC(=O)NC3=O)C4=O)c12 (some centres unmarked) [Compound I-50au]', 'Dmax', '%', 24.2),
  ('O=C1CCC(N2Cc3cc(OC[C@H]4CCCCN4Cc4cncnc4)ccc3C2=O)C(=O)N1 (some centres unmarked) [Compound I-50ce]', 'Dmax', '%', 43.9),
  ('O=C1CCC(N2Cc3cc(OC[C@H]4CCCCN4Cc4ccc(N5CCN(CC6CC6)CC5)cc4)ccc3C2=O)C(=O)N1 (some centres unmarked)', 'Dmax', '%', 82.7),
  ('O=C1CCC(N2Cc3cc(OC[C@H]4CCCCN4Cc4ccccc4N4CCN(CC5CCOCC5)CC4)ccc3C2=O)C(=O)N1 (some centres unmarked)', 'Dmax', '%', 98.1),
  ('N#Cc1cc(CN2CCCC[C@H]2COc2ccc3c(c2)CN(C2CCC(=O)NC2=O)C3=O)ccn1 (some centres unmarked) [Compound I-50bl]', 'Dmax', '%', 17.6),
  ('O=C1CCC(N2Cc3cc(OC[C@@H]4CCCCN4C(=O)CCn4c(=O)oc5ccccc54)ccc3C2=O)C(=O)N1 (some centres unmarked) [Compound I-72jb]', 'Dmax', '%', 0.3);

Report Dmax for O=C1CCC(N2Cc3cc(OC[C@@H]4CCCCN4C(=O)CCN4CCOCC4)ccc3C2=O)C(=O)N1 (some centres unmarked) [Compound I-72ca] please.
10.2

How about COC(=O)c1nn(-c2cccc(C(F)(F)F)c2)cc1CN1CCCC[C@H]1COc1ccc2c(c1)CN(C1CCC(=O)NC1=O)C2=O (some centres unmarked) [Compound I-50ay] ?
25.7

How about O=C1CCC(N2Cc3cc(OC[C@@H]4CCCCN4Cc4cncnc4)ccc3C2=O)C(=O)N1 (some centres unmarked) [Compound I-50cq] ?
7.3

How about O=C1CCC(N2Cc3cc(OC[C@H]4CCCCN4Cc4cccnc4F)ccc3C2=O)C(=O)N1 (some centres unmarked) ?
56.9

How about Cc1c(-c2ccccc2)n[nH]c1C(=O)N1CCCC[C@H]1COc1ccc2c(c1)CN(C1CCC(=O)NC1=O)C2=O (some centres unmarked) [Compound I-72by] ?
52

How about O=C1CCC(N2Cc3cc(OC[C@H]4CCCCN4Cc4ccc(OCCN5CCOCC5)cc4)ccc3C2=O)C(=O)N1 (some centres unmarked) [Compound I-50cg] ?
92.7

###

This section presents compounds with their documented WIZ Amax values.
- EXPERIMENTAL TARGET: HiBit-WIZ fusion protein (Homo sapiens, UniProt O95785+Q96SW2)
- MEASUREMENT NOTES: Quantification of WIZ protein levels in HiBit tag fusion protein assay (WIZ HiBit assay in 293T cells)
- Type: cell-based
- SETTINGS: DMSO-normalized, curve-fitted percentage of WIZ-HiBit remaining at 25 uM; 293T cells
Field: numeric (%). Do not append units.

Guide cases for WIZ Amax, answers given:
INSERT INTO results (compound, experimental_target, recorded_value) VALUES
  ('CCN1C2CCC(C2)C1COc1ccc2c(c1)CN(C1CCC(=O)NC1=O)C2=O (single isomer, unassigned) [I-255 (Isomer 4)]', 'HiBit-WIZ fusion protein (Homo sapiens, UniProt O95785+Q96SW2)', 27.0),
  ('CCC(Oc1ccc2c(c1)CN(C1CCC(=O)NC1=O)C2=O)[C@@H]1CCCN1 (single isomer, unassigned)', 'HiBit-WIZ fusion protein (Homo sapiens, UniProt O95785+Q96SW2)', 78.7),
  ('CCN1CCC(F)(F)CC1COc1ccc2c(c1)CN(C1CCC(=O)NC1=O)C2=O (single isomer, unassigned) [I-252 (Isomer 2)]', 'HiBit-WIZ fusion protein (Homo sapiens, UniProt O95785+Q96SW2)', 22.9),
  ('O=C1CCC(N2Cc3cc(OC[C@H]4CCCCN4CC4CC(O)C4)ccc3C2=O)C(=O)N1 (stereo partly shown) [I-141a, I-141b]', 'HiBit-WIZ fusion protein (Homo sapiens, UniProt O95785+Q96SW2)', 27.64),
  ('CCN1CCC[C@H]1C(C)Oc1ccc2c(c1)CN(C1CCC(=O)NC1=O)C2=O (single isomer, unassigned) [Compound I-25]', 'HiBit-WIZ fusion protein (Homo sapiens, UniProt O95785+Q96SW2)', 53.4),
  ('CCN1C2CCC(C2)C1COc1ccc2c(c1)CN(C1CCC(=O)NC1=O)C2=O (single isomer, unassigned) [I-255 (Isomer 1)]', 'HiBit-WIZ fusion protein (Homo sapiens, UniProt O95785+Q96SW2)', 26.8);

Consider the additional compound presented here.
Report WIZ Amax for CCN1CCC[C@H]1C(C)Oc1ccc2c(c1)CN(C1CCC(=O)NC1=O)C2=O (single isomer, unassigned) [Compound I-27] please.
84.4

###

- EXPERIMENTAL TARGET: HiBit-WIZ fusion protein (Homo sapiens, UniProt O95785+Q96SW2)
- MEASUREMENT NOTES: Quantification of WIZ protein levels in HiBit tag fusion protein assay (WIZ HiBit assay in 293T cells)
- Format: cell-based
- SETTINGS: WIZ HiBit assay in 293T cells; 10-point, 5-fold dose response, highest concentration 25 μM, about 18 hours; read-out: WIZ AC50
The label is Yes for DC50 below 400 nM and No for DC50 equal to or exceeding 400 nM.

Please review the following examples before continuing.
INSERT INTO measurements (molecule, experimental_target, answer_label) VALUES
  ('N#Cc1cccc(Cn2cccc(CN3CCCC[C@@H]3COc3ccc4c(c3)CN(C3CCC(=O)NC3=O)C4=O)c2=O)c1 (stereo partly shown) [Compound I-50cp]', 'HiBit-WIZ fusion protein (Homo sapiens, UniProt O95785+Q96SW2)', 'No'),
  ('O=C1CCC(N2Cc3cc(OC[C@H]4CCCCN4Cc4cccnc4F)ccc3C2=O)C(=O)N1 (stereo partly shown)', 'HiBit-WIZ fusion protein (Homo sapiens, UniProt O95785+Q96SW2)', 'No'),
  ('CC(C)(C)Cc1cc(C(=O)N2CCCC[C@H]2COc2ccc3c(c2)CN(C2CCC(=O)NC2=O)C3=O)no1 (stereo partly shown) [Compound I-72bz]', 'HiBit-WIZ fusion protein (Homo sapiens, UniProt O95785+Q96SW2)', 'No');

Find out if reported DC50 for O=C1CCC(N2Cc3cc(OC[C@H]4CCCCN4Cc4ccccc4N4CCN(CC5CCOCC5)CC4)ccc3C2=O)C(=O)N1 (stereo partly shown) is less than 400 nM
Yes

How about O=C1CCC(N2Cc3cc(OC[C@@H]4CCCCN4C(=O)c4cccc(N5CCCC5=O)c4)ccc3C2=O)C(=O)N1 (stereo partly shown) [Compound I-72hf] ?
No

How about O=C1CCC(N2Cc3cc(OC[C@H]4CCCCN4Cc4ccc(C5=CCOCC5)cc4)ccc3C2=O)C(=O)N1 (stereo partly shown) ?
Yes

How about O=C1CCC(N2Cc3cc(OC[C@H]4CCCCN4Cc4ncccc4O)ccc3C2=O)C(=O)N1 (stereo partly shown) [Compound I-50ej] ?
No

How about CCN1CCC(F)(F)CC1COc1ccc2c(c1)CN(C1CCC(=O)NC1=O)C2=O (single isomer, unassigned) [I-252 (Isomer 1)] ?
Yes

Measured values drawn from patent US11566022B2 for this set.
